The reported measurements were obtained from PubChem BioAssay (NCI).

Test system: SF-539 CNS
Test: NCI tumour cell line growth inhibition, 48 h
Recorded TGI values for a group of compounds are listed next.
Reported property: TGI (µM)

>>> readout_value("C=C1C(=O)O[C@H]2[C@H]1CC/C(Cn1cc(-c3ccsc3)nn1)=C\\CC[C@@]1(C)O[C@@H]21")
3.47
>>> readout_value("COc1ccc2c(c1)c(-c1ccc(-c3cn(C)c4ccc(OC)cc34)o1)cn2C")
9.27

###

Test system: T-47D breast
Test: NCI tumour cell line growth inhibition, 48 h
Recorded GI50 values for a group of compounds are listed next.
Reported property: GI50

>>> readout_value("CC(=Nc1ccccc1)C1=C(O)C(Cc2ccc(F)cc2)NC1=O (stereo not drawn)")
"0.793 µM"
>>> readout_value("C[C@@]1(O)CCC[C@H]1n1c(=O)c(C(F)F)cc2cnc(NC3CCN(S(C)(=O)=O)CC3)nc21")
"1.29 µM"
>>> readout_value("COc1ccccc1N1CCN(CCCOc2ccc(C(=O)/C=C3/C(=O)Nc4ccccc43)cc2)CC1")
"4.73 µM"
>>> readout_value("CCCCCCC(O)C(O)CCC(O)C1CCC(CCCCC(O)CC2=CC(C)OC2=O)O1 (stereo not drawn)")
"4.99 µM"
>>> readout_value("N#Cc1ccc(NC(=O)Nc2nc3ccc(OC(F)(F)F)cc3s2)cc1")
"0.428 µM"
>>> readout_value("CSC1SCC2C(=O)N(C)C(C(C)C)C(=O)OCC(NC(=O)c3cnc4ccccc4n3)C(=O)NC(C)C(=O)N(C)C1C(=O)N(C)C(C(C)C)C(=O)OCC(NC(=O)c1cnc3ccccc3n1)C(=O)NC(C)C(=O)N2C (stereo not drawn)")
"< 0.001 µM"
>>> readout_value("COC(=O)[C@H](Cc1cn(C)cn1)NC(=O)[C@@H](NC(=O)Nc1cc(C(F)(F)F)cc(C(F)(F)F)c1)C(C)(C)C")
"> 10 µM"
>>> readout_value("CCCCCCCCCCCCC(NC(C)=O)(C(=O)OCC)C(=O)OCC")
"5.43 µM"
